tgt: recombinant eIF4E (Homo sapiens (Human), UniProt P06730)
Sequence (P06730 whole entry): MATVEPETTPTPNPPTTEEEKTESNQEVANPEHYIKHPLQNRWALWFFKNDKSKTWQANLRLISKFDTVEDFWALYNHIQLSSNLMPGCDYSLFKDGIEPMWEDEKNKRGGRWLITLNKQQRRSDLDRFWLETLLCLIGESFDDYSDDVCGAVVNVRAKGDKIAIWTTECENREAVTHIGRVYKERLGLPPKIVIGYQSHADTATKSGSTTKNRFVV
protocol: Fluorescence polarization competition assay for eIF4E binding potency
experimental.conditions: fluorescence polarization competition, 75 nM recombinant eIF4E, 20 nM EDA-m7GDP-ATTO-550; IC50 class; read-out: elF4E FP
pIC50: −log10 of the molar value.
Known pIC50 of a selection of compounds

{"structure.notation": "CC(C)(C)c1cc(C(=O)O)cc(-c2cc(Cl)ccc2OCCn2cnc3cnc(C#N)cc3c2=O)c1", "tgt": "recombinant eIF4E (Homo sapiens (Human), UniProt P06730)", "pIC50": "< 6.00"}
{"structure.notation": "Cc1cc(-c2cc(Cl)ccc2OCCn2c(C)nc3cc(C(F)(F)F)c(-c4ccc(Cl)nc4)c(C#N)c3c2=O)c2scc(C(=O)O)c2n1", "tgt": "recombinant eIF4E (Homo sapiens (Human), UniProt P06730)", "pIC50": "> 7.30"}
{"structure.notation": "Cc1nc2cc(CN(C)C)c(OC(F)(F)F)c(C#N)c2c(=O)n1CCOc1ccc(Cl)cc1-c1ccnc2c(C(=O)O)csc12", "tgt": "recombinant eIF4E (Homo sapiens (Human), UniProt P06730)", "pIC50": "6.00 to 7.30"}
{"structure.notation": "Cc1cc(-c2cc(Cl)ccc2OCCn2c(C)nc3cc(Cl)c(-c4cncc(F)c4)c(C#N)c3c2=O)c2scc(C(=O)O)c2n1", "tgt": "recombinant eIF4E (Homo sapiens (Human), UniProt P06730)", "pIC50": "> 7.30"}
{"structure.notation": "Cc1cc(-c2cc(Cl)ccc2OCCn2c(C)nc3cc(C(F)(F)F)c(-c4ccncc4)c(C#N)c3c2=O)c2scc(C(=O)O)c2n1", "tgt": "recombinant eIF4E (Homo sapiens (Human), UniProt P06730)", "pIC50": "> 7.30"}
{"structure.notation": "Cc1cc(-c2cc(Cl)ccc2OCCn2c(C)nc3cnc(Cl)c(C#N)c3c2=O)c2scc(C(=O)O)c2n1", "tgt": "recombinant eIF4E (Homo sapiens (Human), UniProt P06730)", "pIC50": "> 7.30"}
{"structure.notation": "Cc1cc(-c2cc(Cl)ccc2OCCn2c(C)nc3ccc(CCN(C)C)c(C#N)c3c2=O)c2scc(C(=O)NS(C)(=O)=O)c2n1", "tgt": "recombinant eIF4E (Homo sapiens (Human), UniProt P06730)", "pIC50": "> 7.30"}
{"structure.notation": "C#Cc1c(C(=O)O)cccc1-c1cc(Cl)ccc1OCCn1cnc2cnc(C#N)cc2c1=O", "tgt": "recombinant eIF4E (Homo sapiens (Human), UniProt P06730)", "pIC50": "6.00 to 7.30"}
{"structure.notation": "Cc1nc2cc(F)c(S(C)(=O)=O)c(C#N)c2c(=O)n1CCOc1ccc(Cl)cc1-c1ccnc2c(C(=O)O)csc12", "tgt": "recombinant eIF4E (Homo sapiens (Human), UniProt P06730)", "pIC50": "> 7.30"}
{"structure.notation": "Cc1cc(-c2cc(Cl)ccc2OCCn2c(C)nc3cc(Cl)c(O)c(C#N)c3c2=O)c2scc(C(=O)O)c2n1", "tgt": "recombinant eIF4E (Homo sapiens (Human), UniProt P06730)", "pIC50": "> 7.30"}
{"structure.notation": "Cc1nc2c(S(C)(=O)=O)ccc(C#N)c2c(=O)n1CCOc1ccc(Cl)cc1-c1ccnc2c(C(=O)O)csc12", "tgt": "recombinant eIF4E (Homo sapiens (Human), UniProt P06730)", "pIC50": "> 7.30"}
{"structure.notation": "Cc1sc2c(-c3cc(Cl)ccc3OCCn3cnc4cc(C(F)(F)F)c(CN(C)C)c(C#N)c4c3=O)ccnc2c1C(=O)O", "tgt": "recombinant eIF4E (Homo sapiens (Human), UniProt P06730)", "pIC50": "> 7.30"}
{"structure.notation": "Cc1nc2cnc(N3CC4(C3)CN(C3(CF)CC3)C4)c(C#N)c2c(=O)n1CCOc1ccc(Cl)cc1-c1ccnc2c(C(=O)O)csc12", "tgt": "recombinant eIF4E (Homo sapiens (Human), UniProt P06730)", "pIC50": "> 7.30"}

* * *

tgt: recombinant eIF4E (Homo sapiens (Human), UniProt P06730)
protocol: Fluorescence polarization competition assay for eIF4E binding potency
experimental.conditions: inhibition of eIF4E/EDA-m7GDP-ATTO-550 binding; calculated IC50 values, Table 4B; read-out: IC50
// values below are reported log10(IC50)
quantity.measured: log10(IC50) (log10 of the value in nM)

{"structure.notation": "Cc1nc2cnc(N3CCN(CC(F)(F)Cl)CC3)c(C#N)c2c(=O)n1CCOc1ccc(Cl)cc1-c1ccnc2c(C(=O)O)csc12", "log10(IC50)": 1.14}
{"structure.notation": "Cc1nc2cc(C(F)(F)F)c(N3CCN(C)CC3)c(C#N)c2c(=O)n1CCOc1ccc(Cl)cc1-c1ccnc2c(-c3nn[nH]n3)csc12", "log10(IC50)": 0.05}
{"structure.notation": "Cc1nc2cnc(N(C)C3CCN([C@H]4C[C@H](OC(F)F)C4)CC3)c(C#N)c2c(=O)n1CC#Cc1ccc(Cl)cc1-c1ccnc2c(C(=O)NS(C)(=O)=O)csc12", "log10(IC50)": 0.75}
{"structure.notation": "Cc1nc2cnc(N3CCN(C(C)(C)C)CC3)c(C#N)c2c(=O)n1CCOc1ccc(Cl)cc1-c1ccnc2c(C(=O)O)csc12", "log10(IC50)": 1.63}
{"structure.notation": "Cc1nc2cnc(N3CCC(C)(N(C)CC(F)F)CC3)c(C#N)c2c(=O)n1CC#Cc1ccc(Cl)cc1-c1ccnc2c(C(=O)O)csc12", "log10(IC50)": 1.18}
{"structure.notation": "Cc1cc(-c2cc(Cl)ccc2OCCn2c(C)nc3cnc(-c4ccccc4)c(C#N)c3c2=O)c2scc(C(=O)O)c2n1", "log10(IC50)": 1.33}

* * *

tgt: recombinant eIF4E (Homo sapiens (Human), UniProt P06730)
protocol: Fluorescence polarization competition assay for eIF4E binding potency
experimental.conditions: inhibition of eIF4E/EDA-m7GDP-ATTO-550 binding by 50%; Table 4B calculated values; read-out: IC50
Mark MET only when IC50 stays strictly below 40 nM. Values equal to the cut-off are NOT MET.

{"molecule": "Cc1nc2cc(S(=O)(=O)N(C)C)c(F)c(C#N)c2c(=O)n1CCOc1ccc(Cl)cc1-c1ccnc2c(C(=O)O)csc12 [compound 280]", "tgt": "recombinant eIF4E (Homo sapiens (Human), UniProt P06730)", "label": "NOT MET"}
{"molecule": "Cc1nc2cnc(C3CC3)c(C#N)c2c(=O)n1CCOc1ccc(Cl)cc1-c1ccc(Cl)c2c(C(=O)O)csc12 [compound 773]", "tgt": "recombinant eIF4E (Homo sapiens (Human), UniProt P06730)", "label": "MET"}
{"molecule": "Cc1nc2cc(C(F)F)c(OC(F)F)c(C#N)c2c(=O)n1CCOc1ccc(Cl)cc1-c1ccnc2c(C(=O)O)csc12 [compound 548]", "tgt": "recombinant eIF4E (Homo sapiens (Human), UniProt P06730)", "label": "NOT MET"}
{"molecule": "Cc1cc(-c2cc(Cl)ccc2OCCn2c(C)nc3cc(Cl)c(N4CC(O)C4)c(C#N)c3c2=O)c2scc(C(=O)O)c2n1 [compound 698]", "tgt": "recombinant eIF4E (Homo sapiens (Human), UniProt P06730)", "label": "MET"}
{"molecule": "Cc1cc(-c2cc(Cl)ccc2OCCn2c(C)nc3cc(N(C)C)c(-c4ccccc4)c(C#N)c3c2=O)c2scc(C(=O)O)c2n1 [compound 1040]", "tgt": "recombinant eIF4E (Homo sapiens (Human), UniProt P06730)", "label": "MET"}
{"molecule": "Cc1nc2cc(C(F)(F)F)c(C3CCN(C)CC3)cc2c(=O)n1CCOc1ccc(Cl)cc1-c1ccnc2c(C(=O)O)csc12 [compound 881]", "tgt": "recombinant eIF4E (Homo sapiens (Human), UniProt P06730)", "label": "MET"}
{"molecule": "Cc1nc2cc(C(F)(F)F)cc(C#N)c2c(=O)n1CCOc1cc(F)c(C#N)cc1-c1ccnc2c(C(=O)O)csc12 [compound 289]", "tgt": "recombinant eIF4E (Homo sapiens (Human), UniProt P06730)", "label": "MET"}
{"molecule": "Cc1nc2cc(C(F)(F)F)cc(C#N)c2c(=O)n1CCOc1ccc(Cl)cc1-c1cncc(-c2nn[nH]n2)c1 [compound 660]", "tgt": "recombinant eIF4E (Homo sapiens (Human), UniProt P06730)", "label": "NOT MET"}
{"molecule": "Cc1nc2cc(C(F)(F)F)c(CN3[C@@H]4CC[C@H]3COC4)c(C#N)c2c(=O)n1CCOc1ccc(Cl)cc1-c1ccnc2c(C(=O)O)csc12 [compound 523]", "tgt": "recombinant eIF4E (Homo sapiens (Human), UniProt P06730)", "label": "MET"}
{"molecule": "CONC(=O)c1csc2c(-c3cc(Cl)ccc3OCCn3c(C)nc4cc(F)c(F)c(C#N)c4c3=O)ccnc12 [compound 308]", "tgt": "recombinant eIF4E (Homo sapiens (Human), UniProt P06730)", "label": "NOT MET"}
{"molecule": "Cc1nc2cc(C(F)(F)F)cc(Br)c2c(=O)n1CCOc1ccc(Cl)cc1-c1cccc(C(=O)O)c1 [compound 304]", "tgt": "recombinant eIF4E (Homo sapiens (Human), UniProt P06730)", "label": "NOT MET"}
{"molecule": "Cc1cc(-c2cc(Cl)ccc2OCCn2c(C)nc3cnc(N4CCC(O)C4)c(C#N)c3c2=O)c2scc(C(=O)O)c2n1 (stereo not shown) [compound 1056]", "tgt": "recombinant eIF4E (Homo sapiens (Human), UniProt P06730)", "label": "MET"}
{"molecule": "Cc1cc(-c2cc(Cl)ccc2OCCn2c(C)nc3cc(C(F)(F)F)c(CC(=O)N(C)C)c(C#N)c3c2=O)c2scc(C(=O)O)c2n1 [compound 909]", "tgt": "recombinant eIF4E (Homo sapiens (Human), UniProt P06730)", "label": "MET"}
